- target of assay: EPH-B2 (Homo sapiens)
- Sequence (P29323 19-1055, species assumed): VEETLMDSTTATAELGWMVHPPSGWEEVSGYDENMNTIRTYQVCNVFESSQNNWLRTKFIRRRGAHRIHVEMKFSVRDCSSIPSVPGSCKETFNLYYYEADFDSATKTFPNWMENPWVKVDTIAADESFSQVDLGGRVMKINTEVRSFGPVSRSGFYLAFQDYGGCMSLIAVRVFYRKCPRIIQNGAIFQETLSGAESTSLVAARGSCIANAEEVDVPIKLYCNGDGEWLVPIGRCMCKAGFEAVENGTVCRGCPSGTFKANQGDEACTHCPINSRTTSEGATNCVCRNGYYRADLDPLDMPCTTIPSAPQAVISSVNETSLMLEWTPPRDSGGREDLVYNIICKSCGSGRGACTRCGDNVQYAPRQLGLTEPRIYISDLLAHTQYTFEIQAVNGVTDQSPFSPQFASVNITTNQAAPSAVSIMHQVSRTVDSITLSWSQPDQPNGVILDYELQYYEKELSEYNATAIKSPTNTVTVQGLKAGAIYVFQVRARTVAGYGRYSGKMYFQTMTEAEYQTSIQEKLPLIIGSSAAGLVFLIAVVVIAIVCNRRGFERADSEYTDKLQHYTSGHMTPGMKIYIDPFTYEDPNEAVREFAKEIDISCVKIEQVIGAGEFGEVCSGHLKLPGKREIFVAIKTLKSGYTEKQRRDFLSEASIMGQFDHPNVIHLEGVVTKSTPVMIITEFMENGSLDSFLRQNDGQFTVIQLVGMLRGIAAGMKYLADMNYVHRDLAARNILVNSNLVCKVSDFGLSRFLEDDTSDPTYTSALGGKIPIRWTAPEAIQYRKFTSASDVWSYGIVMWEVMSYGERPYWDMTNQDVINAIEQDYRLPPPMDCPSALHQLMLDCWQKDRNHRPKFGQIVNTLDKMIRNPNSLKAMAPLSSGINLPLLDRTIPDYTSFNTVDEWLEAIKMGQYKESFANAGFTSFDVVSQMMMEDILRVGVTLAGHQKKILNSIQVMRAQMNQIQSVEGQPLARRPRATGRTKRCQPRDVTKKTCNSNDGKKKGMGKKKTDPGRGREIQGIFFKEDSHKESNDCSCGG
- procedure details: Kinase panel (mobility shift)
- Type: biochemical
- study conditions: at 5 um

entry smiles: CNC(=O)c1cc(Oc2ccc(NC(=O)c3nc(NC)oc3-c3ccc(F)cc3)cc2F)ccn1
inhibition of kinase activity, EPH-B2: D (category D for 50-79)
--
entry smiles: [2H]C([2H])([2H])NC(=O)c1cc(Oc2ccc(NC(=O)c3nc(SC)oc3-c3ccc(F)s3)cc2F)ccn1
inhibition of kinase activity, EPH-B2: D (category D for 50-79)
--
entry smiles: CNC(=O)c1cc(Oc2ccc(NC(=O)c3nc(OC)oc3-c3ccc(F)cc3)cc2F)ccn1
inhibition of kinase activity, EPH-B2: D (category D for 50-79)

The reported measurements were obtained from patent US11629143B2.
